compounds and their reported growth
Tested on: COLO 205 colon
Test: NCI-60 one-dose screen, 48 h (100 = growth as untreated, 0 = no growth, -100 = all killed)
Settings: 10 µM unless noted
Compounds without any hit were thinned out: in the full panel of roughly 83,000, 20% have a hit.
READOUT: growth (%)

c1ccc2cc(Cn3cc(CSc4nc5ccccc5s4)nn3)ccc2c1 : 102
FC(F)(F)c1[nH]ncc1-c1nc2ccc3[nH]ncc3c2c2c1CCCC2 : -8.58
COc1ccc(-c2nc3ccc(C)cc3c3c2c(=O)n(C)c(=O)n3C)cc1OC : 109
COc1ccc(/C=C2\c3cc(OC)c(OC)c(OC)c3CC[C@@H]2O)cc1F : 2.26
Cc1cccc(N=Nc2cccc(C)c2)c1 : 111
C/C(Cc1ccc(Cl)cc1)=C(\c1ccc(OCCN2CCCCCC2)cc1)c1ccc(OC(=O)c2ccccc2)cc1 : 44.7
Clc1ccc(Nc2ncc(Cc3cccc(Cl)c3Cl)s2)cc1 : 104
O=Nc1ccc(NC(=O)Nc2ccc([N+](=O)[O-])cc2)cc1 : 116
Nc1c(C(=O)Nc2cccc3ncccc23)sc2nc3c(cc12)CN(Cc1ccccc1)CC3 : 112
NCCCNc1nc2ccccc2c2c(=O)c3cc(Cl)ccc3sc12 : -83.6
c1ccc(Nc2nc3c(s2)CCc2c[nH]cc2-3)nc1 : 98.4
COC(=O)c1ccc2cc(OC)c(OC)cc2c1 : 122
CN(C)Cc1cc(C(C)(C)C)cc(Br)c1O : 102
O=[N+]([O-])c1ccccc1Sc1ccccc1[N+](=O)[O-] : 110
CC1(C)CC[C@]23CC[C@]4(C)[C@H](CC[C@@H]5[C@@]6(C)CCNCC(C)(C)[C@@H]6CC[C@]54C)[C@H]2[C@H]1OC3 : -21
COc1ccc(NC(=O)c2ccc(Nc3ncnc4c3cnn4-c3cccc(F)c3)cc2)cc1 : 109
COc1cc(O)c2c(=O)c3c(CC=C(C)C)cc(OC)c(O)c3oc2c1 : 112
CC1=C2CC/C(C)=C/CC[C@]3(C)O[C@H]3CC/C(C)=C/[C@H]2OC1 : 104
C=CC(=O)Nc1cccc(Oc2nccc(Nc3nnc(-c4ccc(Br)cc4)s3)n2)c1 : 108
CC1=Nc2cnc(Nc3ccc(N4CCCCC4)cc3)nc2Nc2ccccc21 : 81.3
CS(=O)(=O)c1ccc(-c2nc3ccccc3n2CC(=O)N/N=C/c2ccccc2)cc1 : 104

###

System: PC-3 prostate
Assay: NCI-60 one-dose screen, 48 h
Details: 10 µM unless noted
Compounds without any hit were thinned out: in the full panel of roughly 83,000, 20% have a hit. Active and inactive are the calls of the source. How the source made its calls: active means growth percent below 10; inactive means the rest.
Possible outcomes: Yes for active, No for inactive

O=C(c1cccc(N2CCOCC2)n1)c1c[nH]c2ccccc12 : No
C#Cc1cccc(Nc2ncnc3cc(NC(=O)CCl)ccc23)c1 : Yes
O=C(Nc1cc(Cl)cc(Cl)c1)Oc1c(Cl)c(Cl)c(Cl)c(Cl)c1Cl : No
O=c1cc(CNc2cc(F)cc(F)c2)c2ccc(I)cc2[nH]1 : No
COc1cc(Cc2cc(OC)c(O)c(OC)c2)cc(OC)c1O : No
CC(=O)c1ccc(-n2cc(CN3CCN(c4cc5c(cc4F)c(=O)c(C(=O)O)cn5C4CC4)CC3)nn2)cc1 : No
